target: Mu-type opioid receptor (Homo sapiens) + Delta-type opioid receptor (Homo sapiens) (UniProt P35372+P41143); assay: OPRM1-OPRD1 heterodimer agonist potency – cell-based, luminescence, dose response (AID 588407); conditions: cells, MOR-DOR heterodimerization;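 further: potency of agonists raising the heterodimer signal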
Sequence (P35372 whole entry, looked up): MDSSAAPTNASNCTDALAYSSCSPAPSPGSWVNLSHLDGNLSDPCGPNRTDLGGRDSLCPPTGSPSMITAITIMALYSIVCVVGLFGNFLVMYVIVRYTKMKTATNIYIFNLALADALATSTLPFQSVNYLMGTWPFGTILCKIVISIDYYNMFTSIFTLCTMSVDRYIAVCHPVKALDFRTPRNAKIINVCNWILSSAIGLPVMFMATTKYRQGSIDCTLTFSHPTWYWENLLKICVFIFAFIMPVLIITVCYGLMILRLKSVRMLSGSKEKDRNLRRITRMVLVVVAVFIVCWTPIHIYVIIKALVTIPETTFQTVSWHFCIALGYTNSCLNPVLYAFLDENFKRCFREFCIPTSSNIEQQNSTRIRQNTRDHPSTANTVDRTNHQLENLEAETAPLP
Sequence (P41143 whole entry, looked up): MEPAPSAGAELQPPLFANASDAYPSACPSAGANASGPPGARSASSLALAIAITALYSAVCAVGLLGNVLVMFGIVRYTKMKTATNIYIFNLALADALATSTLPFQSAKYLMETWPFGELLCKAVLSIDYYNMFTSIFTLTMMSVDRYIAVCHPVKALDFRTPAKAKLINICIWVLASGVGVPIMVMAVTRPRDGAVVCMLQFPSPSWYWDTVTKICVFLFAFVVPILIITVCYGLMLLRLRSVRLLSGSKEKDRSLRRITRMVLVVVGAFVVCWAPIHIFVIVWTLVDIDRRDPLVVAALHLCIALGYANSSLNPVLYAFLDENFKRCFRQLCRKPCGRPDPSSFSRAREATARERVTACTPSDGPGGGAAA
Calls of active or inactive are those of the source. How the calls were made is not given here.
Measurement Name: EC50

See these solved cases before continuing.
Molecule	Measurement Name	Endpoint Value
COCCCn1c(N)c(-c2nc3ccccc3n2C)c2nc3ccccc3nc21	EC50	4.2 µM
COc1ccc(C(CNC(=O)c2ccc(S(=O)(=O)N(C)C)cc2)N(C)C)cc1 (configuration not stated)	EC50	4.57 µM
Brc1ccc(NC2=Nc3ccccc3CC2)cc1	EC50	inactive
Cc1cccc2cc(C(c3nnnn3Cc3ccccc3)N3CCN(C)CC3)c(=O)[nH]c12 (configuration not stated)	EC50	inactive

Ask | I am curious: what EC50 value has been reported for Cc1cccc(NC(=S)NCC(c2cccnc2)N(C)C)c1C (configuration not stated) ?
Reply | 0.303 µM
